Hello, the source for this data is ChEMBL document CHEMBL1150387, in case you need it.

experimental.target: UniProt P52333
Sequence (P52333 whole entry): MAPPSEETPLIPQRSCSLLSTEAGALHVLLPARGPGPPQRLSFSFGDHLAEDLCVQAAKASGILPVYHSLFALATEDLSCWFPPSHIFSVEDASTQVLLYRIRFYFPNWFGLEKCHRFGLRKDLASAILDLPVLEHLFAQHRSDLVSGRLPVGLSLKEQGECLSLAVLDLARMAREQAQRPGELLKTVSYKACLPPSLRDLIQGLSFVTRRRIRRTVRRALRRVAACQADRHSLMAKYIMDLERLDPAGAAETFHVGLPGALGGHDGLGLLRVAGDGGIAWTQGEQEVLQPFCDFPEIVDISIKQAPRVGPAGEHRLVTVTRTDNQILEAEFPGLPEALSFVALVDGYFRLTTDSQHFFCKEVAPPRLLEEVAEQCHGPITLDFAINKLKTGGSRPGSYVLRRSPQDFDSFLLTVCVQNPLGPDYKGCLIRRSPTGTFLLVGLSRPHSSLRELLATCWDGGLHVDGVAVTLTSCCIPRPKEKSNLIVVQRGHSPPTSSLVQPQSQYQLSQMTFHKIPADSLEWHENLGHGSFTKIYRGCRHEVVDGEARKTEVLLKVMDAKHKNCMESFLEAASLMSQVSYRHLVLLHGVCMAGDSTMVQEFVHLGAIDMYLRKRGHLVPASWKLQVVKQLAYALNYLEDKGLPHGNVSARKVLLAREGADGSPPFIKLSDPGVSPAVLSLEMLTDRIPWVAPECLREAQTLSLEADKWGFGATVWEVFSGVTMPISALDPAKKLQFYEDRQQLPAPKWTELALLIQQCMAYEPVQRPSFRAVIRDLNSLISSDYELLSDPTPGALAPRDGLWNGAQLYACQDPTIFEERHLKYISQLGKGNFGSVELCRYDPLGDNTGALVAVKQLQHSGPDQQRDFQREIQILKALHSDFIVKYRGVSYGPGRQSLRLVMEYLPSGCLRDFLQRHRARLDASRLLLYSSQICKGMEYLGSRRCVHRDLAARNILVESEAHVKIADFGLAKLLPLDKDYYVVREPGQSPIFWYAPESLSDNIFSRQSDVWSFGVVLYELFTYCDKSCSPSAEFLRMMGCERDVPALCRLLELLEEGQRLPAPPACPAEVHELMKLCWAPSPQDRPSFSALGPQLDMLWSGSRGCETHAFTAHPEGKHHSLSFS
measurement.notes: Inhibition of JAK3 at 10 uM by HTRF assay relative to control
quantity.measured: inhibition (%)

- O=C(C1CCN(c2nccc(Nc3ccccc3)n2)CC1)N1CC[C@@H](O)C1: 0

(I) O=C(NCCc1ccc(O)cc1)c1cccc(Nc2nccc(Nc3ccc4ncsc4c3)n2)c1
(II) Cc1cccc(Oc2ccnc(N3CCC[C@H]3C(=O)NCCCn3ccnc3)n2)c1
(III) Cc1cccc(N(C)c2cc(Nc3cccc(C(=O)NCc4ccncc4)c3)ncn2)c1
Q) Reorder the items by inhibition, least to greatest. Give the labels in the order specified.
A) III, II, I

====

experimental.target: Tyrosine-protein kinase ABL1 (Homo sapiens) (UniProt P00519)
Sequence (P00519 whole entry): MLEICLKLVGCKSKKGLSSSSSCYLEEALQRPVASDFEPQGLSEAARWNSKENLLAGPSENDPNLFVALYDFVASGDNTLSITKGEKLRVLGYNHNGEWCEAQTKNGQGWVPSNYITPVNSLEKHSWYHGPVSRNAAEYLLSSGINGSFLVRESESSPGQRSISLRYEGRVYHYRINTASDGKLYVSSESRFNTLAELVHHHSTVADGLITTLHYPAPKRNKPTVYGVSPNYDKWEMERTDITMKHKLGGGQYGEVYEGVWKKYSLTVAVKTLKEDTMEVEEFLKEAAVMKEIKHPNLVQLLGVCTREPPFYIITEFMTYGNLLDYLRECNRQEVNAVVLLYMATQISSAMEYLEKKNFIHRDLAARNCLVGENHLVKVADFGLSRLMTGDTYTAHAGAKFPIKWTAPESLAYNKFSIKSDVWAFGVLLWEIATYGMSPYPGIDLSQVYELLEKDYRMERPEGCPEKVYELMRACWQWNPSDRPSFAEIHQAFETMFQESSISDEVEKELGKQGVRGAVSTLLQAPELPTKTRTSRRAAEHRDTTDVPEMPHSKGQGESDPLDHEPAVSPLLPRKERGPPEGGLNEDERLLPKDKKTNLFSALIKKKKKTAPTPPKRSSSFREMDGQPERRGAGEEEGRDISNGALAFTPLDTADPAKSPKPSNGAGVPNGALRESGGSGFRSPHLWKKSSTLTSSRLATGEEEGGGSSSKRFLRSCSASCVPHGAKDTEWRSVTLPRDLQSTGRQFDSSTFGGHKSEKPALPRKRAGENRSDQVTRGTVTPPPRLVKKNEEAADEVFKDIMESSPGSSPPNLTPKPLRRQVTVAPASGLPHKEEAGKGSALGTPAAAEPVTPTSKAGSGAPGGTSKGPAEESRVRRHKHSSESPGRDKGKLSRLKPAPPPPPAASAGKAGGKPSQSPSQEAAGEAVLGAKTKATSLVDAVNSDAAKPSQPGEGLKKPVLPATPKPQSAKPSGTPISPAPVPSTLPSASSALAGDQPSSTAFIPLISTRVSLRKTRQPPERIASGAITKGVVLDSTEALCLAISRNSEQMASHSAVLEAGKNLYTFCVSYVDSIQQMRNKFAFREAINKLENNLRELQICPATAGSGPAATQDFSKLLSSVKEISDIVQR
measurement.notes: Inhibition of Abl at 10 uM by HTRF assay relative to control
quantity.measured: inhibition (%)

Solved cases below.
• O=C(NC1Cc2ccccc2C1)c1cccc(Nc2ccnc(N3CCN(c4ccccc4)CC3)n2)c1 = 11
• O=C(NCc1cccnc1)c1cccc(-c2ccc(Nc3ccc4ncsc4c3)nn2)c1 = 23

(I) Cc1cccc(Oc2ccnc(N3CCN(CC(=O)Nc4cccc5c4CCCC5)CC3)n2)c1
(II) COc1cccc(Nc2cc(Nc3cccc(C(=O)N(C)CCc4ccccn4)c3)nc(N)n2)c1
Q) # return whichever of I and II has the smaller inhibition The response must carry the label of the picked entry.
A) I

(A) Nc1nc(Nc2ccc3ncsc3c2)cc(N2CCC[C@H]2C(=O)NCCc2cccc(I)c2)n1
(B) COc1cccc(Nc2cc(N3CCC[C@H]3C(=O)NCCN3CCCCC3)nc(N)n2)c1
Q) Compare A and B by numeric inhibition and name the larger one. The response must carry the label of the picked entry.
A) B

(I) Cc1cccc(Nc2nccc(Nc3cccc(C(=O)N(C)CCc4ccccn4)c3)n2)c1
(II) Nc1nc(Nc2ccc(C(=O)NCCc3ccncc3)cc2)cc(N2CCOCC2)n1
(III) COC(=O)C(CO)NC(=O)[C@@H]1CCCN1c1nccc(Oc2cccc(C)c2)n1 (stereo not given in full)
(IV) CN(C)CC(C)(C)CNC(=O)C1CCN(c2cc(N3CCOCC3)nc(N)n2)CC1
Q) # desc sort on inhibition across 4 molecules Give the labels in the order specified.
A) I, III, II, IV
(I: 38%, III: 10%, II: 6%, IV: 2%)
